The measured values listed here are drawn from patent US9149038B2.

Test system: Key Broadleaf Weed and Crop Species
assay_procedure: Post-Emergent Test II: postemergent herbicidal activity, visual rating after 14 d (Table 7)
Format: in vivo
assay_conditions: post-emergence, 336 h, CHEAL: lambsquarters (Chenopodium album), 70 g ai/ha, read-out: Visual Growth Reduction (%) 14 Days After Application CHEAL
Field: pest or weed control at 70 g/ha. Provide a value for each of the compounds that follow.

Endpoint output: pest or weed control at 70 g/ha of Nc1cc(-c2c(F)ccc3c2OC(F)(F)O3)nc(C(=O)O)c1Cl . Value?
95 to 100%

And what about the compound COC(=O)c1nc(-c2ccc3c(c2)OCC3)c(F)c(N)c1Cl ?
95 to 100%

And what about the compound COC(=O)c1nc(-c2cccc3c2OCC3)c(F)c(N)c1Cl ?
95 to 100%

And what about the compound Nc1cc(-c2ccc(Cl)c3c2OC(F)(F)O3)nc(C(=O)O)c1Cl ?
95 to 100%

And what about the compound Nc1c(F)c(-c2ccc3c(c2)COC3)nc(C(=O)O)c1Cl ?
85 to 94%

And what about the compound COC(=O)c1nc(-c2cccc3c2OCO3)nc(N)c1OC ?
60 to 74%

And what about the compound COC(=O)c1nc(-c2ccc(F)c3c2OCO3)c(F)c(N)c1Cl ?
95 to 100%

And what about the compound COc1c(N)nc(-c2ccc(Cl)c3c2OC(F)(F)O3)nc1C(=O)O ?
95 to 100%

And what about the compound COC(=O)c1nc(-c2ccc3c(c2)COC3)c(F)c(N)c1Cl ?
85 to 94%

====

Field: pest or weed control at 17.5 g/ha. Provide a value for each of the compounds that follow.
Tested on: Direct Seeded Rice and weed species
assay_procedure: Postemergence herbicidal activity in direct seeded rice, visual rating after 20-22 days and probit GR20/GR50/GR80/GR90 (Table 14)
Format: in vivo
assay_conditions: post-emergence, 504 h; DIGSA (large crabgrass, Digitaria sanguinalis); 17.5 g ai/ha; postemergence; read-out: Visual Growth Reduction (%) 21 Days After Application DIGSA

Endpoint output: pest or weed control at 17.5 g/ha of Nc1c(F)c(-c2cc3c(cc2F)OC(F)(F)O3)nc(C(=O)O)c1Cl . Value?
95 to 100%

And what about the compound COC(=O)c1nc(-c2ccc3c(c2F)OC(F)(F)O3)cc(N)c1Cl ?
85 to 94%

And what about the compound Nc1c(F)c(-c2ccc3c(c2F)OC(F)(F)O3)nc(C(=O)O)c1Cl ?
95 to 100%

And what about the compound COC(=O)c1nc(-c2ccc3c(c2F)OC(F)(F)O3)c(F)c(N)c1Cl ?
95 to 100%

And what about the compound COc1c(N)nc(-c2ccc3c(c2F)OC(F)(F)O3)nc1C(=O)O ?
75 to 84%

And what about the compound Nc1cc(-c2cc3c(cc2F)OC(F)(F)O3)nc(C(=O)O)c1Cl ?
95 to 100%

And what about the compound Nc1cc(-c2ccc3c(c2F)OC(F)(F)O3)nc(C(=O)O)c1Cl ?
95 to 100%

And what about the compound COc1c(C(=O)O)nc(-c2ccc3c(c2)OC(F)(F)O3)c(F)c1N ?
30 to 44%

====

Test system: Key Broadleaf Weed and Crop Species
assay_procedure: Post-Emergent Test II: postemergent herbicidal activity, visual rating after 14 d (Table 7)
Type: in vivo
assay_conditions: post-emergence, 336 h, wild poinsettia (Euphorbia heterophylla), 35 g ai/ha, read-out: Visual Growth Reduction (%) 14 Days After Application EPHHL
Description: Herbicidal evaluations were made visually on a scale of 0 to 100 where 0 represents no activity and 100 represents complete plant death. […] A weighed amount, determined by the highest rate to be tested, of each test compound was placed in a 25 mL glass vial and was dissolved in 4 mL of a 97:3 v/v mixture of acetone and DMSO to obtain concentrated stock solutions. […]
Field: pest or weed control at 35 g/ha. Provide a value for each of the compounds that follow.

Endpoint output: pest or weed control at 35 g/ha of COC(=O)c1nc(-c2cc(F)c3c(c2)OC(F)(F)O3)c(F)c(N)c1Cl . Value?
0 to 29%

And what about the compound COC(=O)c1nc(-c2cc3c(cc2F)OCO3)cc(N)c1Cl ?
75 to 84%

And what about the compound Nc1c(F)c(-c2ccc3c(c2F)OC(F)(F)O3)nc(C(=O)O)c1Cl ?
95 to 100%

And what about the compound COc1c(N)nc(-c2ccc3c(c2)OC(F)(F)O3)nc1C(=O)O ?
95 to 100%

And what about the compound Nc1c(F)c(-c2cccc3c2OC(F)(F)O3)nc(C(=O)O)c1Cl ?
0 to 29%

And what about the compound Nc1c(F)c(-c2ccc(Cl)c3c2OC(F)(F)O3)nc(C(=O)O)c1Cl ?
0 to 29%

And what about the compound COc1c(C(=O)O)nc(-c2ccc3c(c2)OC(F)(F)O3)c(F)c1N ?
95 to 100%

And what about the compound COC(=O)c1nc(-c2cc3c(cc2Cl)OC(F)(F)O3)c(F)c(N)c1Cl ?
0 to 29%

And what about the compound COC(=O)c1nc(-c2ccc3c(c2)OC(C)O3)c(F)c(N)c1Cl (stereo not drawn) ?
45 to 59%

And what about the compound Nc1c(F)c(-c2ccc3c(c2)OC(F)(F)O3)nc(C(=O)O)c1Cl ?
95 to 100%

And what about the compound COC(=O)c1nc(-c2ccc3c(c2F)OC(F)(F)O3)c(F)c(N)c1Cl ?
95 to 100%

And what about the compound Nc1cc(-c2cc3c(cc2F)OC(F)(F)O3)nc(C(=O)O)c1Cl ?
95 to 100%

And what about the compound COC(=O)c1nc(-c2ccc3c(c2)OC(F)(F)O3)c(C)c(N)c1Cl ?
0 to 29%

And what about the compound Nc1nc(-c2ccc3c(c2)OC(F)(F)O3)nc(C(=O)O)c1Cl ?
85 to 94%

And what about the compound COC(=O)c1nc(-c2cccc3c2OCO3)c(F)c(N)c1Cl ?
0 to 29%

And what about the compound COC(=O)c1nc(-c2ccc3c(c2)OC(C)(C)O3)nc(N)c1Cl ?
95 to 100%

And what about the compound COC(=O)c1nc(-c2ccc3c(c2)OC(F)(F)O3)c(F)c(N)c1OC ?
75 to 84%

And what about the compound COC(=O)c1nc(-c2cc3c(cc2F)OC(F)(F)O3)c(F)c(N)c1OC ?
30 to 44%

====

observable: melting point

Endpoint output: melting point of C=Cc1c(C(=O)OC)nc(-c2ccc3c(c2)OC(F)(F)O3)c(F)c1N . Value?
112 to 114 °C

And what about the molecule COC(=O)c1nc(-c2cc3c(cc2F)OC(F)(F)O3)c(C)c(N)c1Cl ?
162 to 165 °C

And what about the molecule COC(=O)c1nc(-c2cc(F)c3c(c2)OC(F)(F)O3)cc(N)c1Cl ?
176 to 177 °C

And what about the molecule COc1cc2c(cc1-c1cc(N)c(Cl)c(C(=O)O)n1)OC(F)(F)O2 ?
165 to 166 °C

And what about the molecule COC(=O)c1nc(-c2ccc3c(c2F)OC(F)(F)O3)nc(N)c1OC ?
109 to 111 °C

And what about the molecule COC(=O)c1nc(-c2ccc3c(c2F)OC(F)(F)O3)c(C)c(N)c1Cl ?
153.5 to 155 °C

And what about the molecule Nc1cc(-c2cccc3c2OC(F)(F)O3)nc(C(=O)O)c1Cl ?
170 °C

====

System: Direct Seeded Rice and weed species
assay_procedure: Postemergence herbicidal activity in direct seeded rice, visual rating after 20-22 days and probit GR20/GR50/GR80/GR90 (Table 14)
Assay type: in vivo
assay_conditions: post-emergence, 504 h; ORYSJ (Oryza sativa, rice crop); 35 g ai/ha; postemergence; read-out: Visual Growth Reduction (%) 21 Days After Application ORYSJ
observable: pest or weed control at 35 g/ha

Endpoint output: pest or weed control at 35 g/ha of Nc1c(F)c(-c2ccc3c(c2F)OC(F)(F)O3)nc(C(=O)O)c1Cl . Value?
75 to 84%

And what about the compound Nc1cc(-c2ccc3c(c2F)OC(F)(F)O3)nc(C(=O)O)c1Cl ?
95 to 100%

And what about the compound COC(=O)c1nc(-c2ccc3c(c2F)OC(F)(F)O3)cc(N)c1Cl ?
0 to 29%

And what about the compound COC(=O)c1nc(-c2ccc3c(c2F)OC(F)(F)O3)c(F)c(N)c1Cl ?
60 to 74%

And what about the compound COc1c(N)nc(-c2ccc3c(c2F)OC(F)(F)O3)nc1C(=O)O ?
85 to 94%

And what about the compound Nc1c(F)c(-c2cc3c(cc2F)OC(F)(F)O3)nc(C(=O)O)c1Cl ?
85 to 94%

And what about the compound COc1c(C(=O)O)nc(-c2ccc3c(c2)OC(F)(F)O3)c(F)c1N ?
95 to 100%

And what about the compound Nc1cc(-c2cc3c(cc2F)OC(F)(F)O3)nc(C(=O)O)c1Cl ?
95 to 100%
